# System name: human mineralocorticoid receptor (MR) (Homo sapiens, UniProt P08235)
# Sequence (P08235 734-984 limits assumed): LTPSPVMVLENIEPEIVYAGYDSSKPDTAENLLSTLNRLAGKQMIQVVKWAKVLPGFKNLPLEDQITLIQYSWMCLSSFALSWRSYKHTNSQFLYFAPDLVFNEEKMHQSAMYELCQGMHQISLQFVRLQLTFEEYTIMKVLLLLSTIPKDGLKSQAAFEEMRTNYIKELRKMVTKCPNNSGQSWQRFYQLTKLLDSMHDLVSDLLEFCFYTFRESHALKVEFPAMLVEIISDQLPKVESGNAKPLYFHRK
# Test details: Cellular in-vitro transactivation test for inhibitory MR activity (CHO K1, GAL4-MR chimera, luciferase reporter)
# Applied conditions: in-vitro transactivation, antagonism vs aldosterone
Metric: IC50 (nM)
Provide the reading as a plain figure in nM.

Which IC50 is reported for this compound? CC[C@]12CC[C@H]3[C@@H]([C@H]4C[C@H]4C4=CC(=O)CC[C@@]43C)[C@@H]1CC[C@@]21CCC(=O)O1
0.71

Which IC50 is reported for this compound? C[C@]12CCC(=O)C=C1[C@@H]1C[C@@H]1[C@H]1[C@@H]3[C@@H]4C[C@@H]4[C@@]4(CCC(=O)O4)[C@@]3(C)CC[C@@H]12
1.48

Which IC50 is reported for this compound? CC[C@]12CCC3[C@H](C1CC[C@@]21CCC(=O)O1)[C@@H]1C[C@@H]1C1=CC(=O)CC[C@@]13C (stereo partly drawn)
5.6

---

# System name: progesterone receptor (PR) (Homo sapiens, UniProt P06401)
# Sequence (P06401 680-933): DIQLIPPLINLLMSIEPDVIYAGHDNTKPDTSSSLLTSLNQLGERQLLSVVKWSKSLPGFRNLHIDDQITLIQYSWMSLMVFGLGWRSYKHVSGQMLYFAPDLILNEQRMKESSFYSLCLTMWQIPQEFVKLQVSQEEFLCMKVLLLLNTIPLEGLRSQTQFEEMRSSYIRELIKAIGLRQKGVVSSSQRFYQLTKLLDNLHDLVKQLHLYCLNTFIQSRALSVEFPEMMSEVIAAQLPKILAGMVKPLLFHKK
# Test details: Cellular in-vitro transactivation test on PR (CHO K1, GAL4-PR chimera, luciferase reporter)
# Applied conditions: read-out: ED50 (PR)
Metric: EC50

Which EC50 is reported for this molecule? CC[C@]12CC[C@H]3[C@@H]([C@H]4C[C@H]4C4=CC(=O)CC[C@@]43C)[C@@H]1CC[C@@]21CCC(=O)O1
1.2 nM

Which EC50 is reported for this molecule? CC[C@]12CCC3[C@H](C1CC[C@@]21CCC(=O)O1)[C@@H]1C[C@@H]1C1=CC(=O)CC[C@@]13C (some centres unmarked)
100 nM

---

# System name: progesterone receptor (PR) (Homo sapiens, UniProt P06401)
# Test details: Cellular in-vitro transactivation test on PR (CHO K1, GAL4-PR chimera, luciferase reporter)
# Format: cell-based
# Applied conditions: efficacy given with ED50
Provide the reported efficacy (PR) of each item.
Provide the reading as a plain figure in %.

Lookup: efficacy (PR) / progesterone receptor (PR) (Homo sapiens, UniProt P06401) / CC(=O)S[C@@H]1CC2=CC(=O)CC[C@]2(C)[C@H]2CC[C@@]3(C)[C@@H](CC[C@@]34CCC(=O)O4)[C@H]12
43

Lookup: efficacy (PR) / progesterone receptor (PR) (Homo sapiens, UniProt P06401) / CC[C@]12CCC3[C@H](C1CC[C@@]21CCC(=O)O1)[C@@H]1C[C@@H]1C1=CC(=O)CC[C@@]13C (stereo partly shown)
38.6

Lookup: efficacy (PR) / progesterone receptor (PR) (Homo sapiens, UniProt P06401) / C[C@]12CCC(=O)C=C1[C@@H]1C[C@@H]1[C@H]1[C@@H]3[C@@H]4C[C@@H]4[C@@]4(CCC(=O)O4)[C@@]3(C)CC[C@@H]12
83

Lookup: efficacy (PR) / progesterone receptor (PR) (Homo sapiens, UniProt P06401) / CC[C@]12CC[C@H]3[C@@H]([C@H]4C[C@H]4C4=CC(=O)CC[C@@]43C)[C@@H]1CC[C@@]21CCC(=O)O1
50

Data credit: patent US20140288035A1
